Data provenance: PubChem BioAssay AID1963860

Give pIC50 for every item shown.
Tested on: CN0375-F725-PDC KRAS spheroid viability;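 also: spheroids exposed to agents for 7 days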
Test: Anticancer human tumor CN0375-F725-PDC patient-derived colon carcinoma cell line growth inhibition [KRAS2]
Conditions: curve of first compound; second compound 1 µM; spheroids with HUVEC and MSC
Source text: Multicellular complex tumor spheroid response to RAS pathway inhibitors in combination with a targeted agents in patient-derived cell lines with oncogenic KRAS variants from multiple cancer types A high-throughput screen of multi-cell type tumor spheroids was designed to identify active combinations of targeted small molecules and KRAS pathway inhibitors. […] Compounds. […] If the clinical Cmax for an agent had not been determined, the highest concentration tested was 10 microM. […]
pIC50: −log10 of the molar value.

In: Form entry - test system: CN0375-F725-PDC KRAS spheroid viability; read-out: pIC50; compound: CCN1CCN(Cc2ccc(Nc3ncc(F)c(-c4cc(F)c5nc(C)n(C(C)C)c5c4)n3)nc2)CC1 + CC1OCC2(CCN(c3cnc(Sc4ccnc(N)c4Cl)c(N)n3)CC2)C1N;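 also: spheroids exposed to agents for 7 days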
Out: < 6.00

In: Form entry - test system: CN0375-F725-PDC KRAS spheroid viability; read-out: pIC50; compound: CC(=O)OC12COC1CC(O)C1(C)C(=O)C(O)C3=C(C)C(OC(=O)C(O)C(NC(=O)OC(C)(C)C)c4ccccc4)CC(O)(C(OC(=O)c4ccccc4)C21)C3(C)C (stereo not given) + C=CC(=O)N1CCN(c2nc(=O)n(-c3c(C)ccnc3C(C)C)c3nc(-c4c(O)cccc4F)c(F)cc23)C(C)C1;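 also: spheroids exposed to agents for 7 days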
Out: < 5.50

In: Form entry - test system: CN0375-F725-PDC KRAS spheroid viability; read-out: pIC50; compound: COc1cc(Nc2ncc3c(n2)-c2ccc(Cl)cc2C(c2c(F)cccc2OC)=NC3)ccc1C(=O)O + C=CC(=O)N1CCN(c2nc(=O)n(-c3c(C)ccnc3C(C)C)c3nc(-c4c(O)cccc4F)c(F)cc23)C(C)C1;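 also: spheroids exposed to agents for 7 days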
Out: < 5.00

In: Form entry - test system: CN0375-F725-PDC KRAS spheroid viability; read-out: pIC50; compound: CC1(C)CCC(CN2CCN(c3ccc(C(=O)NS(=O)(=O)c4ccc(NCC5CCOCC5)c([N+](=O)[O-])c4)c(Oc4cnc5[nH]ccc5c4)c3)CC2)=C(c2ccc(Cl)cc2)C1 + CNCc1ccccc1-c1csc(C(C)Nc2nc(C)nc3cc(OC)c(OC)cc23)c1;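 also: spheroids exposed to agents for 7 days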
Out: > 7.50

In: Form entry - test system: CN0375-F725-PDC KRAS spheroid viability; read-out: pIC50; compound: Cn1nccc1Nc1nccc(-c2cc3c(s2)C(C)(C)N(CCN2CCOCC2)C3=O)n1 + C=CC(=O)N1CCN(c2nc(OCC3CCCN3C)nc3c2CCN(c2cccc4cccc(C)c24)C3)CC1CC#N;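 also: spheroids exposed to agents for 7 days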
Out: 6.13
